Reference source: patent US12493040B2

tested on: RNAi-treated eri-1 (mg366) nematodes; assay: RNAi screening of olfactory receptor genes: chemotaxis assay of RNAi-treated nematodes to odorants; assay type: in vivo, Caenorhabditis elegans; conditions: srh-79 RNAi-treated nematodes; low concentration of attractant

# Smiles String, chemotaxis index
rows = [
    ("c1cnccn1", 0.12),
    ("Cc1nc(C)c(C)s1", 0.42),
    ("CCC(=O)C(C)=O", 0.53),
    ("CCC(C)=O", 0.58),
]

----------
We begin with a simple list: items and their reported chemotaxis index.
system: RNAi-treated eri-1 (mg366) nematodes; experiment: RNAi screening of olfactory receptor genes: chemotaxis assay of RNAi-treated nematodes to odorants; assay type: in vivo, Caenorhabditis elegans; settings: srh-60 RNAi-treated nematodes; low concentration of attractant

# Smiles String, chemotaxis index
data = [
    ("Cc1nc(C)c(C)s1", 0.79),
    ("CCC(=O)C(C)=O", 0.22),
    ("c1cnccn1", 0.52),
    ("CCC(C)=O", 0.79),
]

----------
system: RNAi-treated eri-1 (mg366) nematodes; assay: RNAi screening of olfactory receptor genes: chemotaxis assay of RNAi-treated nematodes to odorants; type: in vivo, Caenorhabditis elegans; details: srh-40 RNAi-treated nematodes; repellent or high concentration of attractant
Property: chemotaxis index

# Molecule, Property, Measured Value
data = [
    ("CC(=O)C(C)=O [High Da]", "chemotaxis index", "−0.46"),
    ("CCCCCCCC(C)=O [nonanone]", "chemotaxis index", "−0.83"),
    ("O=Cc1ccccc1 [High Bz]", "chemotaxis index", "−0.87"),
    ("CCCCCCCCO [octanol]", "chemotaxis index", "−0.92"),
    ("CC(C)CCO [High Iaa]", "chemotaxis index", "−0.88"),
]

----------
We begin with a simple list: items and their reported chemotaxis index.
Tested on: RNAi-treated eri-1 (mg366) nematodes
Test: RNAi screening of olfactory receptor genes: chemotaxis assay of RNAi-treated nematodes to odorants
Type: in vivo, Caenorhabditis elegans
Conditions: srh-83 RNAi-treated nematodes; repellent or high concentration of attractant
Procedure: The RNAi assay was carried out by performing an RNAi method involving the feeding (feeding RNAi method) of eri-1 (mg366) (19), using an Ahringer library (37). Nine adult eri-1 mutants were placed on an NGM plate containing isopropyl 1-D-1-thiogalactopyranoside (0.19 g/L), ampicillin (60 mg/L), and Escherichia coli (E. coli), and were then cultured for 4 days. […] The z score and a control value in each single test from 2SD were calculated in all days (Table 3) or every day. […]

# Smiles String, chemotaxis index
data = [
    ("CCCCCCCCO", "−0.33"),
    ("CC(=O)C(C)=O", "−0.23"),
    ("CCCCCCCC(C)=O", "−0.70"),
    ("CC(C)CCO", 0.34),
    ("O=Cc1ccccc1", "−0.45"),
]

----------
system: RNAi-treated eri-1 (mg366) nematodes; assay: RNAi screening of olfactory receptor genes: chemotaxis assay of RNAi-treated nematodes to odorants; type: in vivo, Caenorhabditis elegans; conditions: srh-227 RNAi-treated nematodes; low concentration of attractant
Given measured chemotaxis index, output fulfilled if it is greater than or equal to 0.6 and not fulfilled if not.

# Smiles String, Label Class
rows = [
    ("O=Cc1ccccc1", "not fulfilled"),
    ("CCC(C)=O", "not fulfilled"),
    ("Cc1nc(C)c(C)s1", "fulfilled"),
    ("CC(C)CCO", "not fulfilled"),
    ("c1cnccn1", "not fulfilled"),
]
